Reference source: paper PMC5064235

# systemName: recombinant human PDE5 (Homo sapiens, UniProt O76074)
# assayInfo: In vitro PDE5 inhibitory activity (IMAP FP phosphodiesterase assay)
# setupConditions: purified PDE5, 50 nM TAMRA-cGMP, 1.5 h at 30 °C; 10 concentrations, at least two replicates; read-out: PDE5 Inhibition IC50
pIC50: −log10 of the molar value.
endpoint: pIC50

{"structureNotation": "NCCN1CC(=O)N2[C@H](c3ccc(Cl)cc3)c3[nH]c4ccccc4c3C[C@@H]2C1=O", "pIC50": 5.44}

I. O=C1[C@@H]2Cc3c([nH]c4ccccc34)[C@@H](c3ccc(Br)cc3)N2C(=O)CN1CCO
II. NCCCCN1CC(=O)N2[C@H](c3ccc(Br)cc3)c3[nH]c4ccccc4c3C[C@@H]2C1=O
Pick one: I or II . Which one has the lower reported pIC50? In your reply, give the label of the chosen option.
II
